# Assay Protocol: PSAC antagonists in infected red cells, primary screen, cell-based, P. falciparum Indochina, OD700, 18 h (AID 1157)
# Experimental Parameters: P. falciparum Indochina infected erythrocytes, osmotic lysis OD700, 18 h; higher = more signal, called active from +8 up or from −8 down
Active and inactive are the calls of the source.
# z-score listing for each entry below

C=CCC(OC(C)=O)[C@@H]1[C@@H](N(Cc2ccc(-c3ccccc3)cc2)C(=O)c2cccc3ccccc23)c2cc(OCCCO)ccc2N1C(=O)c1ccc2ccccc2c1 (stereo partly specified) ... -0.0577 (inactive)
COc1ccc([Si](C)(C)[C@H]2[C@H](CC(=O)N3Cc4ccccc4C[C@H]3CO)O[C@@]3(C(=O)N(Cc4cccc(N5C(=O)c6cccc7cccc5c67)c4)c4ccccc43)[C@@H]2C)cc1 ... 0.793 (inactive)
COc1cc2c(cc1O)C(c1ccc(CN3CCCC3)cc1)N(Cc1ccc([N+](=O)[O-])o1)CC2 (stereo unspecified) ... 0.818 (inactive)
C=CCNC(=O)[C@@H]1[C@H]2C(=O)O[C@H](c3ccccc3)[C@H](c3ccccc3)N2[C@H](c2ccccc2OCCO)[C@@]12C(=O)N(C(=O)OCCOC)c1ccc(C#CCCO)cc12 ... 0.167 (inactive)
CC(c1ccccc1)C(O)C1C=CC2C(=O)N(c3ccccc3)C(=O)C2N1Nc1ccc(C#N)cc1 (stereo unspecified) ... 0.264 (inactive)
CCCCC(=C=CC[C@H](O)c1ccc(OCCO)cc1)C[C@H](O)c1ccccn1 ... 1.07 (inactive)

Q: # z-score lookup, item `CCOC(=O)C1=CC[C@@H](c2ccccc2)N(S(=O)(=O)C[Si](C)(C)C)[C@H]1c1ccccc1`
Result: 0.999 (inactive)

Q: # z-score lookup, item `NCCCC[C@@H]1NC(=O)[C@H]2C[C@@H](C(=O)NCc3ccc(F)cc3)[C@@H](c3ccc(O)cc3)N2C1=O`
Result: 0.302 (inactive)

Q: # z-score lookup, item `CC(C)=CCN(C(=O)C#Cc1ccccc1)[C@H](CO)c1ccccc1`
Result: 0.402 (inactive)

Q: # z-score lookup, item `COCCOC(=O)N1C(=O)[C@@]2(c3cc(C#CCC(C(=O)OC)C(=O)OC)ccc31)[C@H](C(=O)N1CCCCCCC1)[C@H]1C(=O)O[C@H](c3ccccc3)[C@H](c3ccccc3)N1[C@@H]2c1ccccc1OCCO`
Result: -1.21 (inactive)

Q: # z-score lookup, item `COCCCNC(=O)[C@@]1(Sc2ccc(C)cc2)CC(=O)N(C2CCCCC2)[C@@H]1c1ccc(CO)cc1I`
Result: 0.5 (inactive)

Q: # z-score lookup, item `CN(C)C(=O)[C@]1(Cc2ccccc2)N=C(c2ccc(OCCCO)cc2)O[C@@H]1c1ccccc1`
Result: 2.51 (inactive)

Q: # z-score lookup, item N#Cc1ccc(C(O)C2C=CC3C(=O)N(c4ccccc4)C(=O)C3N2Nc2ccc([N+](=O)[O-])cc2)cc1 (stereo unspecified)
Result: 1.56 (inactive)

Q: # z-score lookup, item `COC(=O)[C@@]1(Cc2ccc(F)cc2)[C@H]2c3cc(C(=O)N4CCCC4)n(CCO)c3C[C@H]2CN1C(=O)c1ccccc1`
Result: 0.716 (inactive)

Q: # z-score lookup, item `C#CCN=C(N)N`
Result: -0.0065 (inactive)
